- ASSAY_OVERVIEW: Pharmacokinetics in rat after intravenous administration
- Format: in vivo
- PARTICULARS: male rats, intravenous 0.5 mg/kg bolus, plasma, non-compartmental analysis
RECORDED_METRIC: AUC

CCCNC(=O)Nc1cccc(S(=O)(=O)Nc2cccc([C@@H](CC(=O)O)NC(=O)Nc3ccc(NC(=O)NCCOCCOCCOCCC(=O)NCCCC[C@H](NC(=O)CCOCCOCCOCCNC(=O)Nc4ccc(NC(=O)N[C@H](CC(=O)O)c5cccc(NS(=O)(=O)c6cccc(NC(=O)NCCC)c6)c5)cc4)C(=O)NCCOCCOCCOCCC(=O)N[C@@H](CC(=O)O)C(=O)N4CCC[C@H]4C(=O)N[C@H](C(=O)O[C@]4(CC)C(=O)OCc5c4cc4n(c5=O)Cc5c-4nc4ccccc4c5CC)C(C)C)cc3)c2)c1 | 50 to 150 µg·h/mL
CCCNC(=O)Nc1cccc(S(=O)(=O)Nc2cccc([C@@H](CC(=O)O)NC(=O)Nc3ccc(NC(=O)NCCOCCOCCOCCC(=O)N[C@@H](CCCCNC(=O)CCCC(=O)NCCOCCOCCOCCC(=O)N[C@@H](CC(=O)O)C(=O)N4CCC[C@H]4C(=O)N[C@H](C(=O)O[C@]4(CC)C(=O)OCc5c4cc4n(c5=O)Cc5c-4nc4ccccc4c5CC)C(C)C)C(=O)NCCC(=O)O)cc3)c2)c1 [Compound E1] | 10 to 50 µg·h/mL
CCCNC(=O)Nc1cccc(S(=O)(=O)Nc2cccc([C@@H](CC(=O)O)NC(=O)Nc3ccc(NC(=O)NCCOCCOCCOCCC(=O)N[C@@H](CCCCNC(=O)CCCC(=O)NCCOCCOCCOCCC(=O)N[C@@H](CC(=O)O)C(=O)N4CCC[C@H]4C(=O)N[C@H](C(=O)O[C@]4(CC)C(=O)OCc5c4cc4n(c5=O)Cc5c-4nc4ccccc4c5CC)C(C)C)C(=O)NCCCCCCCC(=O)O)cc3)c2)c1 [Compound E2] | 50 to 150 µg·h/mL

Okay, next one:
[in] Give the reported AUC for this compound. CCCNC(=O)Nc1cccc(S(=O)(=O)Nc2cccc([C@@H](CC(=O)O)NC(=O)Nc3ccc(NC(=O)NCCN(C)CCN(C)CCN(C)CC(=O)N[C@@H](CC(N)=O)C(=O)N4CCC[C@H]4C(=O)N[C@H](C(=O)O[C@]4(CC)C(=O)OCc5c4cc4n(c5=O)Cc5c-4nc4ccccc4c5CC)C(C)C)cc3)c2)c1.Cl.Cl.Cl
[out] 1 to 10 µg·h/mL

---

- System: NCI H292
- ASSAY_OVERVIEW: Cytotoxicity in vitro in the presence and absence of elastase (MTT assay)
- Assay type: cell-based, human
- PARTICULARS: NCI H292 cells, compound alone (no elastase), 72 h
- Procedure: Cultivation of cells was performed according to standard procedures with the media recommended by the provider. The cells, in a total volume of 100 μL, were seeded in a 96-well plate with a white bottom (#3610). After a 24 h incubation period at 37° C. and 5% CO2, the medium was exchanged by adding 90 μL fresh medium. […] The proliferation was detected using the MTT assay (ATCC). […] The formed dye was detected at 570 nm. […]
RECORDED_METRIC: IC50

CCCNC(=O)Nc1cccc(S(=O)(=O)Nc2cccc([C@H](CC(=O)O)NC(=O)Nc3ccc(NC(=O)NCCN(C)CCN(C)CCN(C)CC(=O)NCCN(C)CCN(C)CCN(C)CC(=O)N[C@@H](CC(N)=O)C(=O)N4CCC[C@H]4C(=O)N[C@H](C(=O)O[C@]4(CC)C(=O)OCc5c4cc4n(c5=O)Cc5c-4nc4ccccc4c5CC)C(C)C)cc3)c2)c1 [Compound D2] | 10 to 100 nM

[in] Give the reported IC50 for this compound. CCCNC(=O)Nc1cccc(S(=O)(=O)Nc2cccc([C@@H](CC(=O)O)NC(=O)Nc3ccc(NC(=O)NCCN(C)CCN(C)CCN(C)CC(=O)N[C@@H](CC(N)=O)C(=O)N4CCC[C@H]4C(=O)N[C@H](C(=O)O[C@]4(CC)C(=O)OCc5c4cc4n(c5=O)Cc5c-4nc4ccccc4c5CC)C(C)C)cc3)c2)c1 [Compound B4]
[out] 10 to 100 nM

[in] Give the reported IC50 for this compound. CCCNC(=O)Nc1cccc(S(=O)(=O)Nc2cccc([C@@H](CC(=O)OCCCN)NC(=O)Nc3ccc(NC(=O)NCCOCCOCCOCCC(=O)N[C@@H](CC(=O)OCCCN)C(=O)N4CCC[C@H]4C(=O)N[C@H](C(=O)O[C@]4(CC)C(=O)OCc5c4cc4n(c5=O)Cc5c-4nc4ccccc4c5CC)C(C)C)cc3)c2)c1 [Compound C8]
[out] 1.1 to 10 nM

[in] Give the reported IC50 for this compound. CCCNC(=O)Cc1cccc(S(=O)(=O)Nc2cccc([C@H](CC(=O)O)NC(=O)Nc3ccc(NC(=O)NCCOCCOCCOCCC(=O)N[C@@H](CCCCNC(=O)CCOCCOCCOCCNC(=O)Nc4ccc(NC(=O)N[C@@H](CC(=O)O)c5cccc(NS(=O)(=O)c6cccc(NC(=O)NCCC)c6)c5)cc4)C(=O)NCCN(C)CCN(C)CCN(C)CC(=O)N[C@@H](CC(N)=O)C(=O)N4CCC[C@H]4C(=O)N[C@H](C(=O)O[C@]4(CC)C(=O)OCc5c4cc4n(c5=O)Cc5c-4nc4ccccc4c5CC)C(C)C)cc3)c2)c1 [Compound A6]
[out] 1.1 to 10 nM

[in] Give the reported IC50 for this compound. CCCNC(=O)Nc1cccc(S(=O)(=O)Nc2cccc([C@@H](CC(=O)OCC[N+](C)(C)C)NC(=O)Nc3ccc(NC(=O)NCCOCCOCCOCCC(=O)N[C@@H](CC(=O)OCC[N+](C)(C)C)C(=O)N4CCC[C@H]4C(=O)N[C@H](C(=O)O[C@]4(CC)C(=O)OCc5c4cc4n(c5=O)Cc5c-4nc4ccccc4c5CC)C(C)C)cc3)c2)c1 [Compound C9]
[out] 10 to 100 nM

[in] Give the reported IC50 for this compound. CCCNC(=O)Nc1cccc(S(=O)(=O)Nc2cccc([C@@H](CC(=O)O)NC(=O)Nc3ccc(NC(=O)NCCN(C)CCN(C)CCN(C)CC(=O)NCC(=O)N4CCC[C@H]4C(=O)N[C@H](C(=O)O[C@]4(CC)C(=O)OCc5c4cc4n(c5=O)Cc5c-4nc4ccccc4c5CC)C(C)C)cc3)c2)c1 [Compound B2]
[out] 1.1 to 10 nM

[in] Give the reported IC50 for this compound. CCCNC(=O)Nc1cccc(S(=O)(=O)Nc2cccc([C@@H](CC(=O)O)N(C(=O)NC(N)=O)c3ccc(NCCCCOC(=O)C[C@H](NC(=O)CCOCCOCCOCCNc4ccc(N(C(=O)NC(N)=O)[C@H](CC(=O)O)c5cccc(NS(=O)(=O)c6cccc(NC(=O)NCCC)c6)c5)cc4)C(=O)N4CCC[C@H]4C(=O)N[C@H](C(=O)O[C@]4(CC)C(=O)OCc5c4cc4n(c5=O)Cc5c-4nc4ccccc4c5CC)C(C)C)cc3)c2)c1 [Compound C4]
[out] 1.1 to 10 nM

[in] Give the reported IC50 for this compound. CCCNC(=O)Nc1cccc(S(=O)(=O)Nc2cccc([C@@H](CC(=O)O)NC(=O)Nc3ccc(NC(=O)NCCC(=O)NCCCC[C@H](NC(=O)CCNC(=O)Nc4ccc(NC(=O)N[C@H](CC(=O)O)c5cccc(NS(=O)(=O)c6cccc(NC(=O)NCCC)c6)c5)cc4)C(=O)NCCOCCOCCOCCC(=O)N[C@@H](CC(=O)O)C(=O)N4CCC[C@H]4C(=O)N[C@H](C(=O)O[C@]4(CC)C(=O)OCc5c4cc4n(c5=O)Cc5c-4nc4ccccc4c5CC)C(C)C)cc3)c2)c1 [Compound A2]
[out] 10 to 100 nM

[in] Give the reported IC50 for this compound. CCCNC(=O)Nc1cccc(S(=O)(=O)Nc2cccc([C@@H](CC(=O)O)NC(=O)Nc3ccc(NC(=O)NCCOCCOCCOCCC(=O)N[C@@H](CC(=O)OCCCCN(C)C)C(=O)N4CCC[C@H]4C(=O)N[C@H](C(=O)O[C@]4(CC)C(=O)OCc5c4cc4n(c5=O)Cc5c-4nc4ccccc4c5CC)C(C)C)cc3)c2)c1 [Compound C3]
[out] 10 to 100 nM

[in] Give the reported IC50 for this compound. CCCNC(=O)Nc1cccc(S(=O)(=O)Nc2cccc([C@@H](CC(=O)O)NC(=O)Nc3ccc(NC(=O)NCCCC[C@H](NC(=O)Nc4ccc(NC(=O)N[C@H](CC(=O)O)c5cccc(NS(=O)(=O)c6cccc(NC(=O)NCCC)c6)c5)cc4)C(=O)NCCOCCOCCOCCC(=O)N[C@@H](CC(=O)O)C(=O)N4CCC[C@H]4C(=O)N[C@H](C(=O)O[C@]4(CC)C(=O)OCc5c4cc4n(c5=O)Cc5c-4nc4ccccc4c5CC)C(C)C)cc3)c2)c1 [Compound A1]
[out] 10 to 100 nM

[in] Give the reported IC50 for this compound. CCCNC(=O)Nc1cccc(S(=O)(=O)Nc2cccc([C@@H](CC(=O)O)NC(=O)Nc3ccc(NC(=O)NCCCCN(C)CCN(C)CCN(C)CC(=O)N[C@@H](CCCCNC(=O)CN(C)CCN(C)CCN(C)CCNC(=O)Nc4ccc(NC(=O)N[C@H](CC(=O)O)c5cccc(NS(=O)(=O)c6cccc(NC(=O)NCCC)c6)c5)cc4)C(=O)NCCN(C)CCN(C)CCN(C)CC(=O)N[C@@H](CC(N)=O)C(=O)N4CCC[C@H]4C(=O)N[C@H](C(=O)O[C@]4(CC)C(=O)OCc5c4cc4n(c5=O)Cc5c-4nc4ccccc4c5CC)C(C)C)cc3)c2)c1 [Compound A7]
[out] 1.1 to 10 nM
